Molecular target: MAGI1_1, Q96QZ7
Sequence (Q96QZ7 1-106): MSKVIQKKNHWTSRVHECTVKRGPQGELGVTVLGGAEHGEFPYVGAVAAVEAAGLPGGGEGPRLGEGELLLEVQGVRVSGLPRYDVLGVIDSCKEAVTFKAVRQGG
Experiment: holdup assay
Set-up: key: below the threshold = too weak to quantify, mostly under pKd 3.1 to 4
Details: plain residues with an end cap or a label only (N-terminal biotin on a linker: ttds)
measurement_kind: pKd

Some solved cases for reference:
[
  {
    "binder": "QSARYRDTEL [TJP2, Q9UDY2]",
    "pKd": 3.55
  },
  {
    "binder": "GQDSREETQL [KCNT2, Q6UVM3]",
    "pKd": "below the threshold"
  },
  {
    "binder": "STLTIFETAL [ABCC4, O15439]",
    "pKd": "below the threshold"
  },
  {
    "binder": "VLRLQSETSV [VANGL1, Q8TAA9]",
    "pKd": "below the threshold"
  }
]

Moving on to another binder below.
Reported pKd of TVASEKESVM [SLC1A5, Q15758] : below the threshold
